- SYSTEM TESTED: GST-tagged KRAS-G12D (2-169) (Homo sapiens, UniProt P01116, G12D)
- Sequence (P01116 2-169 isoform P01116-2 G12D): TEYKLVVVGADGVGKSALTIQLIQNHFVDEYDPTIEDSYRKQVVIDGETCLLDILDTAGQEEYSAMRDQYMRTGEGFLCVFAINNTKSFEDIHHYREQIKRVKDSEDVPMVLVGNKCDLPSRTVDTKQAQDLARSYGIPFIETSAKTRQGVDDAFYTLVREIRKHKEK
- PROCEDURE SUMMARY: Nucleotide exchange assay (NEA), SOS-mediated, HTRF, KRAS G12D
- Assay type: biochemical
- EXPERIMENTAL PARAMETERS: Table 4; IC50 extracted at 30 min; 20 nM SOScat; read-out: NEA G12D IC50
- From the text: This activity is tightly regulated by GTPase activating proteins (GAPs) and guanine nucleotide exchange factors (GEFs). […] Homogenous time resolved fluorescence (HTRF) was used to detect SOS-mediated binding of a fluorescent GTP analog, GTP-DY-647P1 (Jena Biosciences NU-820-647P1) to GST-tagged KRAS-G12D (2-169) or to GST-tagged KRAS-G12V (2-169, Reaction Biology, MSC-11-540). […]
MEASURED PROPERTY: IC50

// below: answered molecules
| MOLECULE | TEST RESULT |
| --- | --- |
| C[C@@]1(O)CCCN(c2nc(OC[C@@]34CCCN3C[C@H](F)C4)nc(N3CC4(C3)c3c(sc(N)c3C#N)CC4F)n2)C1 (stereo partly drawn) | < 10 nM |
| C[C@@]1(O)CCCN(c2nc(OC[C@@]34CCCN3C[C@H](F)C4)nc(N3CC4(C3)c3c(sc(N)c3C#N)CS4(=O)=O)n2)C1 (racemic) | 100 to 1000 nM |

# ---- query molecule ----
Param item: C[C@@]1(O)CCCN(c2nc(OCC3(CN4CCOCC4)CC3)nc(N3CC4(C3)c3c(sc(N)c3C#N)C[C@@H]4F)n2)C1 ; param system: GST-tagged KRAS-G12D (2-169) (Homo sapiens, UniProt P01116, G12D); output IC50: < 10 nM
